Assign pIC50 to each entry below.
Target: Potassium-transporting ATPase (Oryctolagus cuniculus)
Experiment: Compound was tested in vitro for H+/K+ ATPase activity in rabbit stomach preparations
As a rule, pIC50 stands for the negative log10 of the concentration, concentration in M.

Requested read-out: pIC50. Entry: CCc1cn(-c2ccc(F)cc2C)c2c1cnc1c(OC)cccc12 5.24

Same thing, different compound: COc1cccc2c1ncc1c(C(C)C)cn(-c3ccc(O)cc3C)c12 5.14

Same thing, different compound: COc1cccc2c1ncc1c(CO)cn(-c3ccccc3C)c12 4.00

Same thing, different compound: COc1cccc2c1ncc1c(CCO)cn(-c3ccccc3C)c12 4.10

====

Molecular target: Potassium-transporting ATPase (Oryctolagus cuniculus)
Assay: Compound was tested in vitro for H+/K+ ATPase activity in rabbit stomach preparations
reported metric: IC50 (µM)
Report only the number, with the unit µM understood.

What measured IC50 is associated with COc1cccc2c1ncc1c(C(C)C)cn(-c3ccccc3C)c12 on Potassium-transporting ATPase (Oryctolagus cuniculus)? 17

Same thing, different compound: COc1cccc2c1ncc1c(C)cn(-c3ccccc3C)c12 8.2

Same thing, different compound: CCCC(=O)c1cnc2c(OC)cccc2c1Nc1ccccc1C 18

Same thing, different compound: CCc1cn(-c2ccc(O)cc2C)c2c1cnc1c(OC)cccc12 4.8

Same thing, different compound: COc1cccc2c1ncc1c(C)cn(-c3ccc(OC(C)=O)cc3C)c12 3.4

Same thing, different compound: COc1cccc2c1nc(C)c1c(C)cn(-c3ccc(F)cc3C)c12 72

Same thing, different compound: Cc1ccccc1-n1cc(C)c2cnc3c(O)cccc3c21 4.8

Same thing, different compound: COc1cccc2c1ncc1c(C)cn(-c3ccc(F)cc3C)c12 14

The reported numbers originate from ChEMBL document CHEMBL1131995.
